measurement_description: Binding affinity to 5'-FAM/3'-TAMARA labelled c-KIT2 G-quadruplex DNA (unknown origin) assessed as change in melting temperature at 1 uM by FRET assay
ΔTm values by entry
readout_name: ΔTm (°C)

COc1cc2c(cc1OC)-c1nc3ccccc3c(NCCN3CCN(C)CC3)c1CC2    9
COc1cc2c(cc1OC)-c1nc3ccccc3c(NCCCN3CCCCC3)c1CC2    8.1
COc1cc2c(cc1OC)-c1nc3ccccc3c(C(=O)NCCN3CCCC3)c1CC2    0.6
COc1cc2c(cc1OC)-c1c(c(NCCCN3CCCC3)c3ccccc3[n+]1C)CC2    4.7
CCN(CC)CCCNc1c2c(nc3ccccc13)-c1cc(OC)c(OC)cc1CC2    5.4
CCN(CC)CCNc1c2c([n+](C)c3ccccc13)-c1cc(OC)c(OC)cc1CC2    3.3
COc1cc2c(cc1OC)-c1c(c(NCCN(C)C)c3ccccc3[n+]1C)CC2    2.8
COc1cc2c(cc1OC)-c1nc3ccccc3c(NCCN(C)C)c1CC2    6.7
COc1cc2c(cc1OC)-c1c(c(NCCN3CCCC3)c3ccccc3[n+]1C)CC2    3.7
COc1cc2c(cc1OC)-c1nc3ccccc3c(NCCN3CCCC3)c1CC2    6.2
COc1cc2c(cc1OC)-c1nc3ccccc3c(C(=O)NCCCN3CCCCC3)c1CC2    0.6
COc1cc2c(cc1OC)-c1nc3ccccc3c(NCCCN(C)C)c1CC2    9
COc1cc2c(cc1OC)-c1nc3ccccc3c(NCCCN3CCCC3)c1CC2    8.6
CCN(CC)CCCNc1c2c([n+](C)c3ccccc13)-c1cc(OC)c(OC)cc1CC2    3.6
COc1cc2c(cc1OC)-c1nc3ccccc3c(NCCN3CCCCC3)c1CC2    2.6
COc1cc2c(cc1OC)-c1nc3ccccc3c(NCCCN3CCN(C)CC3)c1CC2    8.6
COc1cc2c(cc1OC)-c1c(c(NCCCN(C)C)c3ccccc3[n+]1C)CC2    3.7
COc1cc2c(cc1OC)-c1nc3ccccc3c(Cl)c1CC2    0.1
COc1cc2c(cc1OC)-c1c(cc3c(OCCCN4CCCCC4)c(OC)ccc3[n+]1C)CC2    4.4
CCN(CC)CCCNC(=O)c1c2c(nc3ccccc13)-c1cc(OC)c(OC)cc1CC2    0.6
CCN(CC)CCNc1c2c(nc3ccccc13)-c1cc(OC)c(OC)cc1CC2    6.5

----------
Kd values by entry
measurement_description: Binding affinity to biotinylated duplex DNA (unknown origin) by SPR assay
readout_name: Kd

COc1cc2c(cc1OC)-c1c(c(NCCCN(C)C)c3ccccc3[n+]1C)CC2    > 20 µM
CCN(CC)CCCNc1c2c(nc3ccccc13)-c1cc(OC)c(OC)cc1CC2    > 20 µM
COc1cc2c(cc1OC)-c1c(c(NCCN(C)C)c3ccccc3[n+]1C)CC2    > 20 µM
COc1cc2c(cc1OC)-c1nc3ccccc3c(Cl)c1CC2    > 20 µM
COc1cc2c(cc1OC)-c1nc3ccccc3c(C(=O)NCCCN3CCCCC3)c1CC2    > 20 µM
COc1cc2c(cc1OC)-c1nc3ccccc3c(C(=O)NCCN3CCCC3)c1CC2    > 20 µM
CCN(CC)CCNc1c2c([n+](C)c3ccccc13)-c1cc(OC)c(OC)cc1CC2    > 20 µM
CCN(CC)CCNc1c2c(nc3ccccc13)-c1cc(OC)c(OC)cc1CC2    5.9 µM
COc1cc2c(cc1OC)-c1nc3ccccc3c(NCCCN3CCCC3)c1CC2    > 20 µM
COc1cc2c(cc1OC)-c1nc3ccccc3c(NCCN3CCN(C)CC3)c1CC2    17 µM
COc1cc2c(cc1OC)-c1nc3ccccc3c(NCCN(C)C)c1CC2    9.4 µM

----------
Tested on: BJ
measurement_description: Cytotoxicity against human BJ cells after 48 hrs by MTT assay
Format: cell-based
readout_name: IC50 (µM)

COc1cc2c(cc1OC)-c1nc3ccccc3c(NCCN3CCCC3)c1CC2    5.2
CCN(CC)CCCNc1c2c(nc3ccccc13)-c1cc(OC)c(OC)cc1CC2    29.4
COc1cc2c(cc1OC)-c1nc3ccccc3c(NCCCN3CCCCC3)c1CC2    12.3
CCN(CC)CCNc1c2c(nc3ccccc13)-c1cc(OC)c(OC)cc1CC2    22.7
COc1cc2c(cc1OC)-c1nc3ccccc3c(NCCN3CCN(C)CC3)c1CC2    7.9
COc1cc2c(cc1OC)-c1nc3ccccc3c(NCCN(C)C)c1CC2    19
COc1cc2c(cc1OC)-c1c(c(NCCN3CCCC3)c3ccccc3[n+]1C)CC2    36
COc1cc2c(cc1OC)-c1nc3ccccc3c(NCCCN3CCCC3)c1CC2    6.7
COc1cc2c(cc1OC)-c1nc3ccccc3c(NCCCN(C)C)c1CC2    4.2
COc1cc2c(cc1OC)-c1nc3ccccc3c(NCCCN3CCN(C)CC3)c1CC2    13.7

----------
ΔTm values by entry
measurement_description: Binding affinity to F10T duplex DNA (unknown origin) assessed as change in melting temperature at 1 uM by FRET assay
readout_name: ΔTm (°C)

COc1cc2c(cc1OC)-c1c(c(NCCCN3CCCC3)c3ccccc3[n+]1C)CC2    1.1
CCN(CC)CCCNc1c2c([n+](C)c3ccccc13)-c1cc(OC)c(OC)cc1CC2    0.9
COc1cc2c(cc1OC)-c1c(c(NCCN(C)C)c3ccccc3[n+]1C)CC2    0.8
COc1cc2c(cc1OC)-c1nc3ccccc3c(NCCCN3CCCC3)c1CC2    1.1
COc1cc2c(cc1OC)-c1c(cc3c(OCCCN4CCCCC4)c(OC)ccc3[n+]1C)CC2    0.2
COc1cc2c(cc1OC)-c1c(c(NCCN3CCCC3)c3ccccc3[n+]1C)CC2    0.9
COc1cc2c(cc1OC)-c1nc3ccccc3c(NCCCN(C)C)c1CC2    1.3
CCN(CC)CCCNc1c2c(nc3ccccc13)-c1cc(OC)c(OC)cc1CC2    0.6
COc1cc2c(cc1OC)-c1nc3ccccc3c(Cl)c1CC2    0.7
CCN(CC)CCNc1c2c(nc3ccccc13)-c1cc(OC)c(OC)cc1CC2    0.6
CCN(CC)CCNc1c2c([n+](C)c3ccccc13)-c1cc(OC)c(OC)cc1CC2    0.9

----------
measurement_description: Binding affinity to c-KIT1 G-quadruplex DNA (unknown origin) measured after 10 mins by UV-vis spectroscopic method
Kd values by entry
readout_name: Kd (µM)

CCN(CC)CCCNc1c2c(nc3ccccc13)-c1cc(OC)c(OC)cc1CC2    3.3
CCN(CC)CCCNc1c2c([n+](C)c3ccccc13)-c1cc(OC)c(OC)cc1CC2    9.1

meta.source: ChEMBL document CHEMBL4011592
